assay: chemical genetic growth profiling, strain panel (AID 1159580);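 also: tested at 20 µM; growth read once vehicle control cultures reached saturation at 30 °C; 1 = growth at the plate median or of vehicle wells; lower values mean less growth of the strain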; conditions: S. cerevisiae deletion strains, growth OD, locus YDR388W, stronger effect = lower value
Out of some 5,500 compounds screened, about 2,000 (36%) were called active. Inconclusive results (about 18%) are left out. This is one part of the list.
QUANTITY NAME: normalized growth

CSc1nc(NC(C)C)nc(NC(C)C)n1: 1.01
NC(N)=Nc1ccc(Cl)cc1: 0.997
CC(=O)O[C@@H]1CC2C(C)(CC[C@H](O)C2(C)C)C2CC[C@]3(C)C(=CC(=O)O[C@H]3c3ccoc3)C21C (some centres undefined): 0.996
CC(=O)OCC(=O)[C@@]1(O)CCC2C3C[C@H](C)C4=CC(=O)C=CC4(C)C3[C@@H](O)CC21C (some centres undefined): 1.01
COC(=O)[C@H]1[C@H]2C[C@H]3c4[nH]c5cc(OC)ccc5c4CCN3C[C@H]2C[C@@H](OC(=O)c2cc(OC)c(OC)c(OC)c2)[C@@H]1OC: 0.983
NC(=O)c1cc([N+](=O)[O-])cc([N+](=O)[O-])c1: 0.996
CC[C@@]1(O)C(=O)OCc2c1cc1n(c2=O)Cc2cc3cc(O)ccc3nc2-1: 0.989
COC(=O)CC1C(C)(C)C(OC(C)=O)[C@@H]2[C@@H](OC(C)=O)[C@]34O[C@@]2(O)[C@]1(C)C3CC[C@]1(C)C4=CC(=O)O[C@H]1c1ccoc1 (some centres undefined): 1.02
C[C@@H]1CC[C@@]23CCC4(C)[C@@](C=CC5[C@@]6(C)CCC(=O)C(C)(C)C6CC[C@]54C)(OC2=O)C3[C@H]1C (some centres undefined): 1
NC[C@H]1O[C@H](O[C@H]2[C@H](O)[C@@H](O[C@H]3O[C@H](CO)[C@@H](O)[C@H](N)[C@H]3O)[C@H](N)C[C@@H]2N)[C@H](N)[C@@H](O)[C@@H]1O: 0.98
CC1(C)C(=O)CC[C@@]2(C)C1C[C@@H](O)[C@@]1(C)C3=CC(=O)O[C@@H](c4ccoc4)[C@]3(C)CCC21 (some centres undefined): 1
CC(C)(C)NCC(O)COc1cccc2c1C[C@H](O)[C@H](O)C2 (some centres undefined): 0.989
CC(=O)[C@@]1(O)CCC2C3C=C(Cl)C4=CC(=O)[C@@H]5CC5[C@]4(C)C3CC[C@@]21C (some centres undefined): 1.01
CC(C)Nc1nc(Cl)nc(NC(C)C)n1: 1.01

---

assay: chemical genetic growth profiling, strain panel (AID 1159580); settings: S. cerevisiae deletion strains, growth OD, locus YLR370C, strain arc18, stronger effect = lower value
Out of some 5,500 compounds screened, about 2,000 (36%) were called active. Not shown: some 18% with an inconclusive outcome. Some of the results follow.
QUANTITY NAME: normalized growth

NS(=O)(=O)c1cc2c(cc1C(F)(F)F)NC(Cc1ccccc1)NS2(=O)=O (configuration not stated): 0.983 (inactive)
C[C@H]1O[C@@H](O[C@H]2[C@@H](O)C[C@H](O[C@H]3[C@@H](O)C[C@H](O[C@H]4CC[C@]5(C)C6C[C@@H](O)[C@]7(C)[C@@H](C8=CC(=O)OC8)CC[C@]7(O)C6CC[C@@H]5C4)O[C@@H]3C)O[C@@H]2C)C[C@H](O)[C@@H]1O (some centres not stated): 0.994 (inactive)
C[C@H]1O[C@@H](O[C@H]2[C@@H](O)C[C@H](O[C@H]3[C@@H](O)C[C@H](O[C@H]4CC[C@]5(C)C6CC[C@]7(C)[C@@H](C8=CC(=O)OC8)CC[C@]7(O)C6CC[C@@H]5C4)O[C@@H]3C)O[C@@H]2C)C[C@H](O)[C@@H]1O (some centres not stated): 0.956 (inactive)
NCC(O)CC(=O)O (configuration not stated): 0.973 (inactive)
CCC(=O)O[C@]1(C(=O)CCl)[C@@H](C)CC2C3CCC4=CC(=O)C=C[C@]4(C)[C@@]3(F)[C@@H](O)C[C@@]21C (some centres not stated): 1.02 (inactive)
CC1(C)C(O)CC(=O)C2(C)C1CC(O)C1(C)C2CCC2(C)C(c3ccoc3)OC(=O)C3OC321 (configuration not stated): 1.01 (inactive)
CC(C)(C)NCC(O)COc1cccc2c1C[C@H](O)[C@H](O)C2 (some centres not stated): 1.02 (inactive)

---

experiment: chemical genetic growth profiling, strain panel (AID 1159580);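 also: tested at 20 µM; growth read once vehicle control cultures reached saturation at 30 °C; 1 = growth at the plate median or of vehicle wells; lower values mean less growth of the strain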; settings: S. cerevisiae deletion strains, growth OD, locus YJL154C, strain vps35
The campaign covered roughly 5,500 compounds. About 2,000 (36%) were called active. Inconclusive results (about 18%) are left out. Rule as the data show it: active = normalized growth mostly below about 0.91 (no sharp cut-off); inconclusive = no clear call, values can overlap the other calls; inactive = mostly above about 0.92. Some of the results follow.
Classes used: 1.0 = active, 0.0 = inactive

O=C(/C=C(\O)c1ccccc1)c1ccccc1O: 1.0
CC[C@@]1(O)C(=O)OCc2c1cc1n(c2=O)Cc2cc3ccccc3nc2-1: 1.0
C[C@@H]1CC[C@@]23CCC4(C)[C@@](C=CC5[C@@]6(C)CCC(=O)C(C)(C)C6CC[C@]54C)(OC2=O)C3[C@H]1C (stereo partly drawn): 0.0

---

assay: chemical genetic growth profiling, strain panel (AID 1159580);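 also: tested at 20 µM; growth read once vehicle control cultures reached saturation at 30 °C; 1 = growth at the plate median or of vehicle wells; lower values mean less growth of the strain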; conditions: S. cerevisiae deletion strains, growth OD, locus YPR141C, strain kar3
In all, about 5,500 compounds went through this assay and about 2,000 (36%) were called active. Not shown: some 18% with an inconclusive outcome. Rule as the data show it: active = normalized growth mostly below about 0.91 (no sharp cut-off); inconclusive = no clear call, values can overlap the other calls; inactive = mostly above about 0.92. The list shows a part of the results.
Classes used: active, inactive

COC1C(O)C(O[C@H]2CC[C@]3(C=O)C4C(CC[C@]3(O)C2)[C@@]2(O)CC[C@H](C3=CC(=O)OC3)[C@@]2(C)C[C@H]4OC(C)=O)OC(C)C1OC(C)=O (stereo partly specified): inactive
COc1cccc2c1CCC1=CC(=O)CC[C@@]12C: inactive
CC1(C)C(=O)CC[C@@]2(C)C1C[C@@H](O)[C@@]1(C)C3=CC(=O)O[C@@H](c4ccoc4)[C@]3(C)CCC21 (stereo partly specified): inactive
NC(=O)c1cc([N+](=O)[O-])cc([N+](=O)[O-])c1: inactive
Cc1cc(N)c2ccccc2[n+]1CCCCCCCCCC[n+]1c(C)cc(N)c2ccccc21: active
CC(=O)O[C@@H]1CC2C(C)(CC[C@H](O)C2(C)C)C2CC[C@]3(C)C(=CC(=O)O[C@H]3c3ccoc3)C21C (stereo partly specified): inactive
CCOC(=O)C1=C(O)C(=O)N(Cc2ccccc2)C1: inactive
COC(=O)[C@H]1[C@H]2C[C@H]3c4[nH]c5cc(OC)ccc5c4CCN3C[C@H]2C[C@@H](OC(=O)c2cc(OC)c(OC)c(OC)c2)[C@@H]1OC: inactive
NCCCCN: inactive
CC1(C)Oc2ccc3ccc(=O)oc3c2CC1O (stereo unspecified): inactive
CC[C@@]1(O)C(=O)OCc2c1cc1n(c2=O)Cc2cc3ccccc3nc2-1: active
CC(=O)N1CCN(c2ccc(OCC3CO[C@](Cn4ccnc4)(c4ccc(Cl)cc4Cl)O3)cc2)CC1 (stereo partly specified): inactive
CC1(C)C(O)CC(=O)C2(C)C1CC(O)C1(C)C2CCC2(C)C(c3ccoc3)OC(=O)C3OC321 (stereo unspecified): inactive
COC1=CC(=O)C=C(OC)C1=O: inactive
NC(=O)c1ccc([N+](=O)[O-])cc1Cl: inactive
C[N+]1(C)C[C@H](O)[C@H](C(=O)[O-])C1: inactive
COc1cc(C(=O)O)cc(OC)c1OC: inactive
CC(=O)O[C@@H]1c2c(ccc3ccc(=O)oc23)OC(C)(C)[C@@H]1OC(=O)CC(C)C: inactive
CN(C)C(=O)C(CCN1CCC(O)(c2ccc(Cl)cc2)CC1)(c1ccccc1)c1ccccc1: inactive
CC1(C)S[C@@H]2[C@H](NC(=O)[C@@H](N)c3ccc(O)cc3)C(=O)N2[C@H]1C(=O)O: inactive
CC1(C)S[C@@H]2[C@H](NC(=O)C(C(=O)O)c3ccccc3)C(=O)N2[C@H]1C(=O)O (stereo partly specified): inactive
CO[C@H]1[C@H](O)[C@@H](O[C@H]2CC[C@]3(C=O)C4CC[C@]5(C)[C@@H](C6=CC(=O)OC6)CC[C@]5(O)C4CC[C@@H]3C2)O[C@@H](C)[C@@H]1O (stereo partly specified): inactive
CC1CCCC(C)N1NC(=O)c1ccc(Cl)c(S(N)(=O)=O)c1 (stereo unspecified): inactive
C[C@]12CCC(=O)C=C1CCc1ccc(O)cc12: inactive
CC[C@H]1CN2CCC1C[C@@H]2[C@@H](O)c1ccnc2ccc(OC)cc12 (stereo partly specified): inactive
NC(N)=Nc1ccc(Cl)cc1: inactive

---

experiment: chemical genetic growth profiling, strain panel (AID 1159580);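 also: tested at 20 µM; growth read once vehicle control cultures reached saturation at 30 °C; 1 = growth at the plate median or of vehicle wells; lower values mean less growth of the strain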; conditions: S. cerevisiae deletion strains, growth OD, locus YLR330W, strain CHS5, stronger effect = lower value
Screen size: about 5,500 compounds; about 2,000 (36%) were called active. About 18% were inconclusive and are not listed. The list shows a part of the results.
QUANTITY NAME: normalized growth

COc1cc(C(=O)O)cc(OC)c1OC: 1.02
C[C@H]1O[C@@H](O[C@H]2[C@@H](O)C[C@H](O[C@H]3[C@@H](O)C[C@H](O[C@H]4CC[C@]5(C)C6C[C@@H](O)[C@]7(C)[C@@H](C8=CC(=O)OC8)CC[C@]7(O)C6CC[C@@H]5C4)O[C@@H]3C)O[C@@H]2C)C[C@H](O)[C@@H]1O (some centres undefined): 0.983
COc1cccc2c1CCC1=CC(=O)CC[C@@]12C: 0.998
CC1=CC(=O)C(C(C)C)=CC1=O: 0.648
CC1(C)[C@@H]2CC[C@@]1(C)C(=O)C2: 0.996
Cc1c(C(N)=O)cc([N+](=O)[O-])cc1[N+](=O)[O-]: 0.994
C[C@H]1OC(O[C@H]2[C@@H](O)CC(O[C@H]3[C@@H](O)C[C@H](O[C@H]4CC[C@]5(C)C6CC[C@]7(C)[C@@H](C8=CC(=O)OC8)[C@@H](O)C[C@]7(O)[C@@H]6CC[C@@H]5C4)O[C@@H]3C)O[C@@H]2C)C[C@H](O)C1O (some centres undefined): 0.994
NC(=O)c1cc([N+](=O)[O-])cc([N+](=O)[O-])c1: 1.02
CN(C)CC[C@H](c1ccc(Cl)cc1)c1ccccn1: 1.01
Cc1cc(N)c2ccccc2[n+]1CCCCCCCCCC[n+]1c(C)cc(N)c2ccccc21: 0.0547
C[C@]12CC[C@H](O)C[C@H]1CCC1C2CC[C@]2(C)[C@@H](C3=CC(=O)OC3)[C@@H](O)C[C@]12O (some centres undefined): 1.02
CC(=O)N1CCCC1C(=O)O (centres undefined): 1.01
Cc1c(OCC(F)(F)F)ccnc1CS(=O)c1nc2ccccc2[nH]1 (centres undefined): 0.987
CC(C)Nc1nc(Cl)nc(NC(C)C)n1: 1.01
CC1(C)S[C@@H]2[C@H](NC(=O)[C@@H](N)c3ccc(O)cc3)C(=O)N2[C@H]1C(=O)O: 1.01
CCCCCC(O)C1C(=O)OC(C)C(O)/C=C/C=C/C=C/C=C/C=C(\C)C(O)CC(O)CC(O)CC(O)CC(O)CC(O)CC1O (centres undefined): 1.01
Cc1ccccc1N1C(=O)c2cc(S(N)(=O)=O)c(Cl)cc2NC1C (centres undefined): 0.99
CC1Cc2ccccc2N1NC(=O)c1ccc(Cl)c(S(N)(=O)=O)c1 (centres undefined): 1.01
O=C(O)CN(CCN(CC(=O)O)CC(=O)O)CC(=O)O: 0.944
CC1(C)S[C@@H]2C(N3C(=O)[C@@H](c4ccccc4)NC3(C)C)C(=O)N2[C@H]1C(=O)O (some centres undefined): 1
C/C=C/CC(C)C(O)C1C(=O)NC(CC)C(=O)N(C)CC(=O)N(C)C(CC(C)C)C(=O)NC(C(C)C)C(=O)N(C)C(CC(C)C)C(=O)NC(C)C(=O)NC(C)C(=O)N(C)C(CC(C)C)C(=O)N(C)C(CC(C)C)C(=O)N(C)C(C(C)C)C(=O)N1C (centres undefined): 1.01
CCn1nc(C(=O)O)c(=O)c2cc3c(cc21)OCO3: 1.01
C[C@@H](CO)NC(=O)C1C=C2c3cccc4[nH]cc(c34)C[C@H]2N(C)C1 (some centres undefined): 0.994
CCc1ccc2c(O)c3c(cc2c1C(=O)OC)C(=O)c1c(O)ccc(O)c1C3=O: 1
COC1=CC(C)[C@@H]2C[C@H]3OC(=O)C[C@H]4C(C)=C(OC)C(=O)C([C@@]34C)[C@@]2(C)C1=O (some centres undefined): 1.01
NCC(O)CC(=O)O (centres undefined): 1.01
CC[C@@]1(O)C(=O)OCc2c1cc1n(c2=O)Cc2cc3ccccc3nc2-1: 0.893
C[C@H]1O[C@@H](O[C@H]2[C@@H](O)C[C@H](O[C@H]3[C@@H](O)C[C@H](O[C@H]4CC[C@]5(C)C6CC[C@]7(C)[C@@H](C8=CC(=O)OC8)CC[C@]7(O)C6CC[C@@H]5C4)O[C@@H]3C)O[C@@H]2C)C[C@H](O)[C@@H]1O (some centres undefined): 1
C[C@]12CCC3C(CC[C@]4(O)C[C@@H](O)CC[C@]34C=O)[C@@]1(O)CCC2C1=CC(=O)OC1 (some centres undefined): 0.983
